Provide the reported TGI of each item.
Test system: MCF7 breast
Experiment: NCI tumour cell line growth inhibition, 48 h

{"compound": "Nc1nc(Cl)c(CO)c(NCC2(CO)CCC2)n1", "tested system": "MCF7 breast", "TGI": "> 100 µM"}
{"compound": "COc1ccc(-c2nc3ccccc3c(=O)[nH]2)cc1", "tested system": "MCF7 breast", "TGI": "> 100 µM"}
{"compound": "COc1cc2ncn(-c3cc(OCc4ccccc4C(F)(F)F)c(C(N)=O)s3)c2cc1OC", "tested system": "MCF7 breast", "TGI": "> 25 µM"}
{"compound": "Brc1ccc2[nH]c3c(C4=NCCC4)nccc3c2c1", "tested system": "MCF7 breast", "TGI": "> 47.6 µM"}
{"compound": "CC(C)c1cc(=O)[nH]c2cc(N)ccc12", "tested system": "MCF7 breast", "TGI": "> 100 µM"}
{"compound": "Clc1ccc2c(NCCNc3nc(N4CCOCC4)nc4ccccc34)ccnc2c1", "tested system": "MCF7 breast", "TGI": "17.2 µM"}
{"compound": "NC1=Nc2cc(C(F)(F)F)ccc2Sc2nc3ccccc3n21", "tested system": "MCF7 breast", "TGI": "> 100 µM"}
{"compound": "CCOC(=O)c1ccc(N(CCOS(C)(=O)=O)CCOS(C)(=O)=O)cc1", "tested system": "MCF7 breast", "TGI": "> 100 µM"}

# batch: return TGI for each of the 7 compounds below
1. N=C(N)c1ccc2oc3ccc(C(=N)N)cc3c(=O)c2c1
2. CC1=NN(c2nc(N)nc(CO)n2)C(C)(C)C1
3. C[C@]12CC[C@H]3[C@@H](CC=C4C[C@@H](O)CC[C@@]43C)[C@@H]1C/C(=C\c1cccnc1)[C@@H]2O
4. CCCCCCCCCCCC/C=C\CC[C@@H](O)[C@H](O)CC[C@H](O)[C@@H]1CC[C@@H](CCCCCCCC2=C[C@H](C)OC2=O)O1
5. COc1cc(/C=C(\C)[N+](=O)[O-])cc(OC)c1
6. C=CCOCC1C2CCC3(OCCO3)C21 (stereo not drawn)
7. CC(C)=CCC[C@@H](C)C1=C(O)C(N[C@H](C)c2ccccc2)=C(C)C(=O)C1=O

1. > 100 µM
2. > 100 µM
3. 42.5 µM
4. 34.6 µM
5. 21.1 µM
6. > 100 µM
7. 17.9 µM

// each compound listed below needs its TGI
1. CN(C(=O)Cc1ccccc1)n1cn[n+](CC(=O)OC(C)(C)C)c1
2. CCN(CC)c1ccc(/C=N/NC(=O)Cc2ccc(Nc3ccnc(C(F)(F)F)c3)cc2)c(O)c1
3. COc1cccc(/C=C2\N=C(c3ccccc3)OC2=O)c1
4. CC1(C)CC(O)CC(C)(C)N1O
5. Oc1c(Br)cc2c(c1Br)-c1c(c(O)c3c4c1=NCCC=4C=N3)NCC2
6. Cc1ccc(C(=O)N/N=C(\N=Nc2ccc([N+](=O)[O-])cc2)c2ccc(N(CCC#N)CCC#N)cc2C)cc1
7. [CH3][Sn]([CH3])([CH3])[S]C(=S)N1CCOCC1

1. > 10 µM
2. > 100 µM
3. > 100 µM
4. > 100 µM
5. 22.2 µM
6. > 100 µM
7. 0.619 µM
